Target: T1, Human CD3eg linker (human)
T1 construct: Single-chain construct; also called recombinant human CD3
T1 chain: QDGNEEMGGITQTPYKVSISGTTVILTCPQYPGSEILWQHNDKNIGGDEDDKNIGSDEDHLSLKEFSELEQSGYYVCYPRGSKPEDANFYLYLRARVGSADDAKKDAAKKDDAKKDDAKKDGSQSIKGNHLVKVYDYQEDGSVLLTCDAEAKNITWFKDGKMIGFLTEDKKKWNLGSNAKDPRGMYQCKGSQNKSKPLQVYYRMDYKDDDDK
Assay: SPR; fold vs parent H183/L072
Quick list: fold change of affinity per entry.
observationType: fold change of affinity (fold)

>  <binder>
H183/L072 VL V94S (antibody, name in Kabat numbering, V domains shown) VH: QVQLVESGGGLVQPGRSLRLSCAASGFTFSNAWMHWVRQAPGKGLEWVAQIKDKGNAYAAYYAPSVKGRFTISRDDSKNSIYLQMNSLKTEDTAVYYCHYVHYASASTVLPAFGVDAWGQGTTVTVSS VL: DIVMTQSPLSLPVTPGEPASISCQASQELVHMNRNTYLHWYQQKPGQAPRLLIYKVSNRFPGVPDRFSGSGSGTDFTLKISRVEAEDVGVYYCAQGTSSPFTFGQGTKLEIK

>  <measuredValue>
0.7

$$$$
>  <binder>
H183/L072 VL P56T (antibody, name in Kabat numbering, V domains shown) VH: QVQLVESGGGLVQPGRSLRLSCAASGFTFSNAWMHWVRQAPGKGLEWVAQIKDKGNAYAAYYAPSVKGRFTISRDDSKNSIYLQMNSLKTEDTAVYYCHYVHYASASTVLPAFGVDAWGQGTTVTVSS VL: DIVMTQSPLSLPVTPGEPASISCQASQELVHMNRNTYLHWYQQKPGQAPRLLIYKVSNRFTGVPDRFSGSGSGTDFTLKISRVEAEDVGVYYCAQGTSVPFTFGQGTKLEIK

>  <measuredValue>
3.9

$$$$
>  <binder>
H183/L072 VL V27cK (antibody, name in Kabat numbering, V domains shown) VH: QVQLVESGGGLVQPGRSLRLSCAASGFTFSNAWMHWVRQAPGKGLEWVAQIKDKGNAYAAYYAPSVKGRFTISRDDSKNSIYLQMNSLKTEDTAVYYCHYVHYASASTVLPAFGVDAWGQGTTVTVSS VL: DIVMTQSPLSLPVTPGEPASISCQASQELKHMNRNTYLHWYQQKPGQAPRLLIYKVSNRFPGVPDRFSGSGSGTDFTLKISRVEAEDVGVYYCAQGTSVPFTFGQGTKLEIK

>  <measuredValue>
1.1

$$$$
>  <binder>
H183/L072 VL V94N (antibody, name in Kabat numbering, V domains shown) VH: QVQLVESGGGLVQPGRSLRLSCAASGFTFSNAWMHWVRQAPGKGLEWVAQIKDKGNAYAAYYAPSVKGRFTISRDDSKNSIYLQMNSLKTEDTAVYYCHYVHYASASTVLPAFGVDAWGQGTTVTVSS VL: DIVMTQSPLSLPVTPGEPASISCQASQELVHMNRNTYLHWYQQKPGQAPRLLIYKVSNRFPGVPDRFSGSGSGTDFTLKISRVEAEDVGVYYCAQGTSNPFTFGQGTKLEIK

>  <measuredValue>
0.9

$$$$
>  <binder>
H183/L072 VL Q27Y (antibody, name in Kabat numbering, V domains shown) VH: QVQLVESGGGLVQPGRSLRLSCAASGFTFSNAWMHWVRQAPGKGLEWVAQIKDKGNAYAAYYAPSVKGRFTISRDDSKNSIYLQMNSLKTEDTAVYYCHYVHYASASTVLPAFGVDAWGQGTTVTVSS VL: DIVMTQSPLSLPVTPGEPASISCQASYELVHMNRNTYLHWYQQKPGQAPRLLIYKVSNRFPGVPDRFSGSGSGTDFTLKISRVEAEDVGVYYCAQGTSVPFTFGQGTKLEIK

>  <measuredValue>
0.9

$$$$

Attribution: patent US20210388087A1
